- SYSTEM_NAME: soybean lipoxygenase (Glycine max)
- Sequence (P08170 1-839): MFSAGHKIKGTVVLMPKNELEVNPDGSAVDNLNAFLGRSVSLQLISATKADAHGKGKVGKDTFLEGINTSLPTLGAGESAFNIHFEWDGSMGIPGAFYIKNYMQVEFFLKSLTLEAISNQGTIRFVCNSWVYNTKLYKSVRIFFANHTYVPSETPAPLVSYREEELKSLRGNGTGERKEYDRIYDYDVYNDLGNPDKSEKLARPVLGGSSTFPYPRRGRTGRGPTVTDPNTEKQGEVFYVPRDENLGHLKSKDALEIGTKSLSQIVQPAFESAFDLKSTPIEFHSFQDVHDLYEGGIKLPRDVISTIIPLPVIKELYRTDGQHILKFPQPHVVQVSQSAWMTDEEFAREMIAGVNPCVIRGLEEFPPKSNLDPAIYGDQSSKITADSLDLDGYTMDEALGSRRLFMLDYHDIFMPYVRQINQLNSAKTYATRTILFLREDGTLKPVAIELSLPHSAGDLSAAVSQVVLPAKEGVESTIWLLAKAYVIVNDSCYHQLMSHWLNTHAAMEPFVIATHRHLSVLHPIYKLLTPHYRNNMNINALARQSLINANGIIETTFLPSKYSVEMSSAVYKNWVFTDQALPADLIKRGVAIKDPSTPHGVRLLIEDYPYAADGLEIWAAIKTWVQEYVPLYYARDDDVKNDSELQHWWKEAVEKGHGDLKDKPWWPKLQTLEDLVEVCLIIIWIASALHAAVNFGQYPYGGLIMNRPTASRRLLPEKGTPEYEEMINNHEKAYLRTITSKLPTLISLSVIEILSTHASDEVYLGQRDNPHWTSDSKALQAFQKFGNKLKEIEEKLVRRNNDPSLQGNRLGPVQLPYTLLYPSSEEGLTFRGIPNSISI
- EXPERIMENT_NOTES: Inhibition of soybean lipoxygenase
- Assay type: biochemical
- CONDITION_SUMMARY: read-out: LOX IC50
PROPERTY_LABEL: pIC50
Note on units: pIC50 is unitless, being -log10 of a concentration expressed in mol/L.

Sample N#CC(C#N)=C1C(Cl)=NSN=C1N1CCN(C(c2ccccc2)c2ccccc2)CC1 [Compound 10b] — what was its pIC50?
4.17

* * *

- SYSTEM_NAME: soybean lipoxygenase (Glycine max)
- EXPERIMENT_NOTES: Inhibition of soybean lipoxygenase
- Format: biochemical
- CONDITION_SUMMARY: read-out: LOX % Inhibition 100 μM
PROPERTY_LABEL: inhibition at 100 µM (%)
The reply should contain only the number, in %.

State the recorded inhibition at 100 µM for this entry: O=c1c(Cl)nsnc1Sc1nccs1 [Compound 11g]
40

Can you handle Cc1ccnc(SC2=NSN=C(Cl)C2=C(C#N)C#N)n1 [Compound 12a] next?
41

Okay, and O=c1c(Cl)nsnc1Sc1nnnn1-c1ccccc1 [Compound 11e] ?
50

Another compound to look at: N#CC(C#N)=C1C(Cl)=NSN=C1Sc1nc2ccccc2o1 [Compound 12c]
27

Consider next the compound N#CC(C#N)=C1C(Cl)=NSN=C1N1CCN(c2ccccc2)CC1 [Compound 10a] in the same way.
46

What do you get for Cn1nnnc1Sc1nsnc(Cl)c1=O [Compound 11b] ?
44

# iterate: O=c1c(Cl)nsnc1Sc1nc2ccccc2s1 [Compound 11h]
33

Next up: Cc1ccnc(Sc2nsnc(Cl)c2=O)n1 [Compound 11a]
31

* * *

- EXPERIMENT_NOTES: Inhibition of AAPH-induced linoleic acid peroxidation
Would you mind telling me the reported %AAPH (100 µM) of each entry?
Respond with the bare value in %.

Entry under review: N#CC(C#N)=C1C(Cl)=NSN=C1N1CCN(c2ccccc2)CC1 [Compound 10a] . Reported %AAPH (100 µM)?
27

What about Cc1c(C)c2c(c(C)c1O)CCC(C)(C(=O)O)O2 (stereo not shown) [Trolox, reference compound] ?
93

Note, next up: N#CC(C#N)=C1C(Cl)=NSN=C1Sc1nc2ccccc2o1 [Compound 12c]
70

// same read-out, input: O=c1c(Cl)nsnc1N1CCN(c2ccccc2)CC1 [Compound 9a]
15

Moving on to O=c1c(Cl)nsnc1Sc1nc2ccccc2o1 [Compound 11c]
5

* * *

- SYSTEM_NAME: soybean lipoxygenase (Glycine max)
- EXPERIMENT_NOTES: Inhibition of soybean lipoxygenase
- Assay type: biochemical
PROPERTY_LABEL: IC50 (µM)
Only the number, expressed in µM, is required.

Find the recorded IC50 belonging to CCOc1ccc2nc(Sc3nsnc(Cl)c3=O)sc2c1 [Compound 11i] and report it.
67.5

Lookup O=c1c(Cl)nsnc1Sc1nc2ccccc2o1 [Compound 11c]
77.5

Same again, this time with O=c1c(Cl)nsnc1N1CCN(c2ccccc2)CC1 [Compound 9a]
7.5

Do the same for CC(=O)Nc1ccc(Sc2nsnc(Cl)c2=O)cc1 [Compound 11d] please
85

Okay, and Cn1nnnc1SC1=NSN=C(Cl)C1=C(C#N)C#N [Compound 12b] ?
75

Please do the same for Cn1cnnc1Sc1nsnc(Cl)c1=O [Compound 11f] as well.
52.5

Next entry: O=c1c(Cl)nsnc1N1CCN(C(c2ccccc2)c2ccccc2)CC1 [Compound 9b]
55

* * *

- EXPERIMENT_NOTES: Inhibition of AAPH-induced linoleic acid peroxidation
PROPERTY_LABEL: %AAPH (100 µM)

[[record]]
compound = "Cn1cnnc1Sc1nsnc(Cl)c1=O [Compound 11f]"
property_label = "%AAPH (100 µM)"
result = "7%"

[[record]]
compound = "CCOc1ccc2nc(Sc3nsnc(Cl)c3=O)sc2c1 [Compound 11i]"
property_label = "%AAPH (100 µM)"
result = "No"

[[record]]
compound = "O=c1c(Cl)nsnc1N1CCN(C(c2ccccc2)c2ccccc2)CC1"
property_label = "%AAPH (100 µM)"
result = "20%"

[[record]]
compound = "Cc1ccnc(SC2=NSN=C(Cl)C2=C(C#N)C#N)n1 [Compound 12a]"
property_label = "%AAPH (100 µM)"
result = "18%"

[[record]]
compound = "CC(=O)Nc1ccc(Sc2nsnc(Cl)c2=O)cc1 [Compound 11d]"
property_label = "%AAPH (100 µM)"
result = "43%"


Item N#CC(C#N)=C1C(Cl)=NSN=C1N1CCN(C(c2ccccc2)c2ccccc2)CC1 [Compound 10b] has what recorded %AAPH (100 µM)?
No

// same read-out, input: Cn1nnnc1Sc1nsnc(Cl)c1=O [Compound 11b]
45%
